protocol_summary: Ex vivo biodistribution in Daudi xenograft-bearing mice
condition_set: male, NOD.Cg-Rag1tm1Mom Il2rgtm1Wjl/SzJ (NRG), mouse, brain, iv, total radioactivity, Brain uptake, 1 h p.i. blocked with LY2510924, mean
Where a SMILES comes first, the peptide text is derived from it. Side-chain parts run from the residue outwards. [ ]: non-standard residue; d: D form. The star is where a group is joined. DOTA = O=C(O)CN1CCN(CC(=O)O)CCN(CC(=O)*)CCN(CC(=O)O)CC1; 2Nal = N[C@@H](Cc1ccc2ccccc2c1)C(=O)O; dNMeOrn = CN[C@H](CCCN)C(=O)O; 4Amb = NCc1ccc(C(=O)O)cc1
parameter: tissue uptake at 1 h
Form entry: enter the amount, then its unit.

Q: tissue uptake at 1 h lookup needed for CN1C(=O)[C@@H](Cc2ccc(O)cc2)NC(=O)CNC(=O)[C@H](Cc2ccc3ccccc3c2)NC(=O)[C@H](CCCNC(=N)N)NC(=O)[C@H]1CCCNC(=O)c1ccc(CNC(=O)CN2CCN(CC(=O)O)CCN(CC(=O)O)CCN(CC(=O)O)CC2)cc1 [[68Ga]Ga-Pentixafor, metal not drawn] (cyclo([dY][dNMeOrn]([4Amb-DOTA])R[2Nal]G)) , thanks.
Ans: 0.03 %ID/g
